Assay procedure: in vitro
Settings: human
Readout: viability at 90 min, 10 % (v/v) (%)
Form entry: value (%) — number only.

Challenge: Which measured viability at 90 min, 10 % (v/v) value corresponds to CCO [ethanol, reference compound] ?
Response given: 12.8

====

Assay procedure: calcein-AM assay of cell viability (imaging flow cytometry)
Type: cell-based
Settings: human, Jurkat cells; irrespective of DMSO content (2.5%, 5%, 10% v/v) and time point (T0, freeze-thaw, control)
Readout: viability

Challenge: Which measured viability value corresponds to C[S+](C)[O-] [DMSO, dimethyl sulfoxide] ?
Response given: 85 to 90%
